- Procedure Summary: In vitro dissolution test in Model Fasted Duodenal (MFD) solution, before storage
- Assay type: physicochemical
- Run Parameters: AUC from 0 to 90 minutes, MFD solution, before aging
Recorded Metric: AUC90 fresh (µg·h/mL)

(P) CCC(CC)Nc1cc(C)nc(Oc2c(C)cc(C)cc2C)c1C [Comparative Example C10]
(Q) CCC(CC)Nc1cc(C)nc(Oc2c(C)cc(C)cc2C)c1C.Cl [Comparative Example C9]
(Q) Response body: label of entry with the larger AUC90 fresh; valid values P , Q . Your choice should be expressed through its label.
(A) Q
